// data source = PubChem BioAssay AID2060503

Test system: 817829-284-R-J1-PDC complex spheroids, viability;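 note: spheroids exposed to agents for 7 days before readout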
test summary: Anticancer human tumor 817829-284-R-J1-PDC patient-derived colon adenocarcinoma cell line growth inhibition [GQUAD]; active = viability on the fitted dose curve at most 10% of control; inactive = the rest
stated conditions: second compound 0.0316 µM; first compound 3.16 µM
Labels: active, inactive

{"compound": "Cc1cccc(N(C)C(=O)C2C(O)CCN2c2nc(C)cc(C(F)(F)F)c2C#N)c1 (stereo unspecified) + Cc1cnc(CNC(=O)c2c(=O)c3ccc(N4CCCN(C)CC4)nc3n3c2sc2ccccc23)cn1", "group": "inactive"}
{"compound": "O=c1[nH]cc(F)c(=O)[nH]1 + CN(C)c1ccc(Nc2c3ccc(NC(=O)CCN4CCCC4)cc3nc3cc(NC(=O)CCN4CCCC4)ccc23)cc1", "group": "inactive"}
{"compound": "O=C(c1cc(Cc2n[nH]c(=O)c3ccccc23)ccc1F)N1CCN(C(=O)C2CC2)CC1 + Cc1cnc(CNC(=O)c2c(=O)c3ccc(N4CCCN(C)CC4)nc3n3c2sc2ccccc23)cn1", "group": "inactive"}
{"compound": "Cc1cccc(N(C)C(=O)C2C(O)CCN2c2nc(C)cc(C(F)(F)F)c2C#N)c1 (stereo unspecified) + Cc1[nH]c2ccc(F)cc2c1-c1nc2c3cccnc3c3ncccc3c2[nH]1", "group": "inactive"}
{"compound": "C=CCn1c(=O)c2cnc(Nc3ccc(N4CCN(C)CC4)cc3)nc2n1-c1cccc(C(C)(C)O)n1 + Cc1[nH]c2ccc(F)cc2c1-c1nc2c3cccnc3c3ncccc3c2[nH]1", "group": "active"}
{"compound": "CC(C)(O)C1CCC(Nc2ccc3ncc(-c4cccc(C(F)(F)F)c4)n3n2)CC1 (stereo unspecified) + Cc1[nH]c2ccc(F)cc2c1-c1nc2c3cccnc3c3ncccc3c2[nH]1", "group": "inactive"}
